Tested on: RBL-2H3
Test: Antiallergic activity against anti-DNP-IgE sensitized rat RBL-2H3 cells assessed as […] of degranulation by measuring beta-hexosaminidase release using P-nitrophenyl-N-acetyl-D-glucosamide as substrate at 1 uM measured after 1 hr by microplate reader relative to control
Assay type: functional
Catalogue of molecules with associated inhibition at 1 µM
Please answer using a numeric value trailed by its unit.

As a guide, the following entries are already answered.
- Record Smiles: "Cc1ccc(C(=O)Nc2ccc3c(c2)OCCO3)cc1C#Cc1cc(-c2cnn(C)c2)cnc1N"
  Result: "132%"
- Record Smiles: "COc1cc(NC(=O)c2ccc(Cl)c(C#Cc3cc(-c4cnn(C)c4)cnc3N)c2)cc(OC)c1"
  Result: "52.5%"
- Record Smiles: "COc1cc(NC(=O)c2ccc(C)c(C#Cc3cc(-c4cnn(C)c4)cnc3N)c2)cc(OC)c1OC"
  Result: "131%"
- Record Smiles: "COc1cc(NC(=O)c2ccc(C(C)C)c(C#Cc3cc(-c4cnn(C)c4)cnc3N)c2)cc(OC)c1"
  Result: "-1.01%"
- Record Smiles: "Cc1ccc(C(=O)Nc2cc(C(F)(F)F)cc(C(F)(F)F)c2)cc1C#Cc1cc(-c2cnn(C)c2)cnc1N"
  Result: "144%"

Please fill in: inhibition at 1 µM reported for Cc1ccc(C(=O)Nc2cccc(OC(F)(F)F)c2)cc1C#Cc1cc(-c2cnn(C)c2)cnc1N = 150%

---

Molecular target: UniProt P07333
Sequence (P07333 whole entry): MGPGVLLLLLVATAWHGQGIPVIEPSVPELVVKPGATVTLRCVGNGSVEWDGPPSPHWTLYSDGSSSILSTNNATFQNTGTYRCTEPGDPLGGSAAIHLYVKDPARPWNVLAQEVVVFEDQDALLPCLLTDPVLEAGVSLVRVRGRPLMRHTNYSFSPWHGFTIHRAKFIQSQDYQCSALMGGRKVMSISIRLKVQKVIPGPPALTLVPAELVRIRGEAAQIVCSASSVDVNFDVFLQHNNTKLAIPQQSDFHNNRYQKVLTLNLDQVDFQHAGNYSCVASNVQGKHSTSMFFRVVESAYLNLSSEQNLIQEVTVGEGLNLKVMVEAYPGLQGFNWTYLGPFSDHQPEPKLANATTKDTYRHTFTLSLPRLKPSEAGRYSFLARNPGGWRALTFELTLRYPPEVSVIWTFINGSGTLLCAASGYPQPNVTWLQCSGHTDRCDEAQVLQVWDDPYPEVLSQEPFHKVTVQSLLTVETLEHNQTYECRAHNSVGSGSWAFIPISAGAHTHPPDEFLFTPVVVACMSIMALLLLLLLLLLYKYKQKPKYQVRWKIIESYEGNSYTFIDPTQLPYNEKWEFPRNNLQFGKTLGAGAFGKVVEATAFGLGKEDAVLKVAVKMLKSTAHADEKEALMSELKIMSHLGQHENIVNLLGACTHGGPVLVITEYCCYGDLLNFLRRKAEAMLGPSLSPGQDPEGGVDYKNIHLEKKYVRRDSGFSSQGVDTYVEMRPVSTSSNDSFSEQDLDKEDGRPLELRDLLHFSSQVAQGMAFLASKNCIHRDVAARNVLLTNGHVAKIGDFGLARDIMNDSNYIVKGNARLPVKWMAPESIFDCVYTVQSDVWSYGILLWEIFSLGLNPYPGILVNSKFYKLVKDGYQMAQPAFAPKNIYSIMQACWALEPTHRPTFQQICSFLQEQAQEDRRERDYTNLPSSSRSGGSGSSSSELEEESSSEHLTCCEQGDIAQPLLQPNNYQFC
Experiment: Inhibition of human recombinant CSF1R using ATP/Ulight-TK peptide incubated for 15 mins
Catalogue of compounds with associated pIC50
The quantity pIC50 is defined as the negative base-10 logarithm of the molar concentration.

The recorded pIC50 with UniProt P07333 for COc1cc(NC(=O)c2ccc(C)c(C#Cc3cc(-c4cnn(C)c4)cnc3N)c2)cc(OC)c1OC was 8.10

---

Assay: Cmax in BALB/c mouse at 20 mg/kg, po measured up to 24 hrs by LC-MS/MS analysis
Type: ADME, organism-based
Set-up: route oral, dose 20 mg/kg, time <=24
Conditions: in vivo
Endpoint Label: Cmax
Please answer using a numeric value trailed by its unit.

Please fill in: Cmax reported for Cc1ccc(C(=O)Nc2cc(C(F)(F)F)cc(C(F)(F)F)c2)cc1C#Cc1cc(-c2cnn(C)c2)cnc1N = 1940 ng/mL

---

Assay: MRT in BALB/c mouse at 2 mg/kg, iv measured up to 24 hrs by LC-MS/MS analysis
Format: ADME, organism-based
Conditions: in vivo
Endpoint Label: MRT (h)
Dear colleague, please return just the value in h, with no unit written.

Please fill in: MRT reported for Cc1ccc(C(=O)Nc2cc(C(F)(F)F)cc(C(F)(F)F)c2)cc1C#Cc1cc(-c2cnn(C)c2)cnc1N = 4.4

---

Target: Tyrosine-protein kinase CSK (Homo sapiens)
Sequence (P41240 whole entry): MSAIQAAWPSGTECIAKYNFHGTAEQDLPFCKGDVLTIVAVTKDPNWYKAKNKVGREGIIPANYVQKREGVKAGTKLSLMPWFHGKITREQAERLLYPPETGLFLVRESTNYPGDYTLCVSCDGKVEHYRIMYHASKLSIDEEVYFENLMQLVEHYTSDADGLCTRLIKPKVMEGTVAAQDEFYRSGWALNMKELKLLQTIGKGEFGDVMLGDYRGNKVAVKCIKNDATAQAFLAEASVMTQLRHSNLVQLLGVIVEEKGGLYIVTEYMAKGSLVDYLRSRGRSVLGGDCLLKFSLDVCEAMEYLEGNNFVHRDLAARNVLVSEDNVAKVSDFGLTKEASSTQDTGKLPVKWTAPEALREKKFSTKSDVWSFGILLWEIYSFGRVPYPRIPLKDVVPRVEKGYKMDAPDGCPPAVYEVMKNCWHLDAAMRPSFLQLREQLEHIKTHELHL
Assay: Inhibition of human full length recombinant CSK by radiometric scintillation counting analysis
Endpoint Label: pIC50
The quantity pIC50 is defined as the negative base-10 logarithm of the molar concentration.

The recorded pIC50 with Tyrosine-protein kinase CSK (Homo sapiens) for Cc1ccc(C(=O)Nc2cc(C(F)(F)F)cc(C(F)(F)F)c2)cc1C#Cc1cc(-c2cnn(C)c2)cnc1N was 6.73

---

System: RBL-2H3
Test: Antiallergic activity against anti-DNP-IgE sensitized rat RBL-2H3 cells assessed as […] of degranulation by measuring beta-hexosaminidase release using P-nitrophenyl-N-acetyl-D-glucosamide as substrate at 1 uM measured after 1 hr by microplate reader relative to control
Type: functional
Catalogue of molecules with associated inhibition at 1 µM
Dear colleague, please return just the value in %, with no unit written.

As a guide, the following entries are already answered.
- Record Smiles: "COc1cc(NC(=O)c2ccc(C)c(C#Cc3cc(C(N)=O)cnc3N)c2)cc(OC)c1"
  inhibition at 1 µM, %: 74.2
- Record Smiles: "Cc1ccc(C(=O)Nc2ccccc2Cl)cc1C#Cc1cc(-c2cnn(C)c2)cnc1N"
  inhibition at 1 µM, %: 25
- Record Smiles: "Cc1ccc(C(=O)Nc2ccc(Cl)c(C(F)(F)F)c2)cc1C#Cc1cc(-c2cnn(C)c2)cnc1N"
  inhibition at 1 µM, %: 170
- Record Smiles: "Cc1ccc(C(=O)Nc2ccccc2)cc1C#Cc1cc(-c2cnn(C)c2)cnc1N"
  inhibition at 1 µM, %: 65.3
- Record Smiles: "CCNc1ncc(-c2cnn(C)c2)cc1C#Cc1cc(C(=O)Nc2cc(OC)cc(OC)c2)ccc1C"
  inhibition at 1 µM, %: 95.4

The recorded inhibition at 1 µM with RBL-2H3 for COc1cc(NC(=O)c2cccc(C#Cc3cc(-c4cnn(C)c4)cnc3N)c2)cc(OC)c1 was 41

The recorded inhibition at 1 µM with RBL-2H3 for Cc1ccc(C(=O)Nc2ccc(OC(F)(F)F)cc2)cc1C#Cc1cc(-c2cnn(C)c2)cnc1N was 144

The recorded inhibition at 1 µM with RBL-2H3 for Cc1ccc(C(=O)NC2CCCCC2)cc1C#Cc1cc(-c2cnn(C)c2)cnc1N was 63.7

The recorded inhibition at 1 µM with RBL-2H3 for COc1cc(NC(=O)c2ccc(C(F)(F)F)c(C#Cc3cc(-c4cnn(C)c4)cnc3N)c2)cc(OC)c1 was 15.7

---

Assay: Therapeutic index, ratio of CC50 for rat RBL2H3 cells to IC50 for Antiallergic activity against anti-DNP-IgE sensitized rat RBL-2H3 cells
Assay type: toxicity
Conditions: read-out: TI
Endpoint Label: selectivity ratio
Give your answer as a number; write no unit.

- Record Smiles: "Cc1ccc(C(=O)Nc2cccc(C(F)(F)F)c2)cc1C#Cc1cc(-c2cnn(C)c2)cnc1N"
  selectivity ratio: 2.5
- Record Smiles: "COc1cc(NC(=O)c2ccc(C)c(C#Cc3cc(-c4cnn(C)c4)cnc3N)c2)cc(OC)c1OC"
  selectivity ratio: 2.2
- Record Smiles: "Cc1ccc(C(=O)Nc2ccc(Cl)c(C(F)(F)F)c2)cc1C#Cc1cc(-c2cnn(C)c2)cnc1N"
  selectivity ratio: 13.9
- Record Smiles: "Cc1ccc(C(=O)Nc2ccc(Cl)cc2)cc1C#Cc1cc(-c2cnn(C)c2)cnc1N"
  selectivity ratio: 11.3

Please fill in: selectivity ratio reported for Cc1ccc(C(=O)Nc2ccc(OC(F)(F)F)cc2)cc1C#Cc1cc(-c2cnn(C)c2)cnc1N = 16.3

Please fill in: selectivity ratio reported for COc1cc(NC(=O)c2ccc(C)c(C#Cc3cc(-c4cnn(C)c4)cnc3N)c2)cc(OC)c1 = 15.4

---

System: RBL-2H3
Test: Antiallergic activity against anti-DNP-IgE sensitized rat RBL-2H3 cells assessed as […] of degranulation by measuring beta-hexosaminidase release using P-nitrophenyl-N-acetyl-D-glucosamide as substrate at 1 uM measured after 1 hr by microplate reader relative to control
Assay type: functional
Endpoint Label: inhibition at 1 µM

As a guide, the following entries are already answered.
- Record Smiles: "Cc1ccc(C(=O)Nc2ccc(C(F)(F)F)cc2)cc1C#Cc1cc(-c2cnn(C)c2)cnc1N"
  inhibition at 1 µM: "78.4%"
- Record Smiles: "COc1ccccc1NC(=O)c1ccc(C)c(C#Cc2cc(-c3cnn(C)c3)cnc2N)c1"
  inhibition at 1 µM: "73.5%"
- Record Smiles: "COc1cc(NC(=O)c2cccc(C#Cc3cc(-c4cnn(C)c4)cnc3N)c2C)cc(OC)c1"
  inhibition at 1 µM: "18.3%"

Please fill in: inhibition at 1 µM reported for COc1cccc(NC(=O)c2ccc(C)c(C#Cc3cc(-c4cnn(C)c4)cnc3N)c2)c1 = 125%

Please fill in: inhibition at 1 µM reported for Cc1ccc(C(=O)Nc2ccc(Cl)cc2)cc1C#Cc1cc(-c2cnn(C)c2)cnc1N = 89.5%

---

Tested on: RBL-2H3
Assay: Antiallergic activity against anti-DNP-IgE sensitized rat RBL-2H3 cells assessed as […] of degranulation by measuring beta-hexosaminidase release using P-nitrophenyl-N-acetyl-D-glucosamide as substrate at 0.2 uM measured after 1 hr by microplate reader relative to control
Type: functional
Given measured inhibition at 0.2 µM, output Satisfied if it is greater than or equal to 60% and Not satisfied if not.

Answered examples (2):
- Record Smiles: "COc1cc(NC(=O)c2ccc(C)c(C#Cc3cc(C(N)=O)cnc3N)c2)cc(OC)c1"
  Experimental System: "RBL-2H3"
  Category Label: "Not satisfied"
- Record Smiles: "COc1cc(NC(=O)c2cccc(C#Cc3cc(-c4cnn(C)c4)cnc3N)c2F)cc(OC)c1"
  Experimental System: "RBL-2H3"
  Category Label: "Not satisfied"

(Q) // inclusive: inhibition at 0.2 µM at least 60%? input: COc1cc(NC(=O)c2ccc(C(C)C)c(C#Cc3cc(-c4cnn(C)c4)cnc3N)c2)cc(OC)c1
(A) Not satisfied

(Q) // inclusive: inhibition at 0.2 µM at least 60%? input: COc1cc(NC(=O)c2cccc(C#Cc3cc(-c4cnn(C)c4)cnc3N)c2OC)cc(OC)c1
(A) Not satisfied

(Q) // inclusive: inhibition at 0.2 µM at least 60%? input: Cc1ccc(C(=O)Nc2ccc(Cl)c(Cl)c2)cc1C#Cc1cc(-c2cnn(C)c2)cnc1N
(A) Not satisfied
